Catalogue of melting point readings, one per entry.

Example cases with answers are listed next.
* CS(=O)(=O)Nc1cc(C(O)CNCCCCCCOCCCc2ccc(Cl)s2)ccc1O (stereo unspecified) | 85 to 87 °C
* CCN(CC)c1ccc(C2OC(=O)c3cc(N(C)C)ccc32)cc1 (stereo unspecified) | 165 to 166 °C
* CCOC(=O)C=Cc1ccc(O)cc1 | 70 to 71 °C

Dear colleague, I am looking for the recorded melting point of the following molecule: "CCOC(=O)CN[C@H]1CSc2ccccc2N(CC(=O)O)C1=O"
223 to 226 °C

Dear colleague, I am looking for the recorded melting point of the following molecule: "COC(=O)c1nccnc1N(C)c1ccc(Cl)cc1[N+](=O)[O-]"
111 to 112 °C
